biological target: von Hippel-Lindau disease tumor suppressor/SWI/SNF-related matrix-associated actin-dependent regulator of chromatin subfamily A member 4 (Homo sapiens, UniProt P51532+P40337); test: Protac activity at E3 ubiquitin ligase/BRG1 (unknown origin) assessed as E3 ubiquitin ligase mediated BRG1 degradation
Sequence (P51532 whole entry): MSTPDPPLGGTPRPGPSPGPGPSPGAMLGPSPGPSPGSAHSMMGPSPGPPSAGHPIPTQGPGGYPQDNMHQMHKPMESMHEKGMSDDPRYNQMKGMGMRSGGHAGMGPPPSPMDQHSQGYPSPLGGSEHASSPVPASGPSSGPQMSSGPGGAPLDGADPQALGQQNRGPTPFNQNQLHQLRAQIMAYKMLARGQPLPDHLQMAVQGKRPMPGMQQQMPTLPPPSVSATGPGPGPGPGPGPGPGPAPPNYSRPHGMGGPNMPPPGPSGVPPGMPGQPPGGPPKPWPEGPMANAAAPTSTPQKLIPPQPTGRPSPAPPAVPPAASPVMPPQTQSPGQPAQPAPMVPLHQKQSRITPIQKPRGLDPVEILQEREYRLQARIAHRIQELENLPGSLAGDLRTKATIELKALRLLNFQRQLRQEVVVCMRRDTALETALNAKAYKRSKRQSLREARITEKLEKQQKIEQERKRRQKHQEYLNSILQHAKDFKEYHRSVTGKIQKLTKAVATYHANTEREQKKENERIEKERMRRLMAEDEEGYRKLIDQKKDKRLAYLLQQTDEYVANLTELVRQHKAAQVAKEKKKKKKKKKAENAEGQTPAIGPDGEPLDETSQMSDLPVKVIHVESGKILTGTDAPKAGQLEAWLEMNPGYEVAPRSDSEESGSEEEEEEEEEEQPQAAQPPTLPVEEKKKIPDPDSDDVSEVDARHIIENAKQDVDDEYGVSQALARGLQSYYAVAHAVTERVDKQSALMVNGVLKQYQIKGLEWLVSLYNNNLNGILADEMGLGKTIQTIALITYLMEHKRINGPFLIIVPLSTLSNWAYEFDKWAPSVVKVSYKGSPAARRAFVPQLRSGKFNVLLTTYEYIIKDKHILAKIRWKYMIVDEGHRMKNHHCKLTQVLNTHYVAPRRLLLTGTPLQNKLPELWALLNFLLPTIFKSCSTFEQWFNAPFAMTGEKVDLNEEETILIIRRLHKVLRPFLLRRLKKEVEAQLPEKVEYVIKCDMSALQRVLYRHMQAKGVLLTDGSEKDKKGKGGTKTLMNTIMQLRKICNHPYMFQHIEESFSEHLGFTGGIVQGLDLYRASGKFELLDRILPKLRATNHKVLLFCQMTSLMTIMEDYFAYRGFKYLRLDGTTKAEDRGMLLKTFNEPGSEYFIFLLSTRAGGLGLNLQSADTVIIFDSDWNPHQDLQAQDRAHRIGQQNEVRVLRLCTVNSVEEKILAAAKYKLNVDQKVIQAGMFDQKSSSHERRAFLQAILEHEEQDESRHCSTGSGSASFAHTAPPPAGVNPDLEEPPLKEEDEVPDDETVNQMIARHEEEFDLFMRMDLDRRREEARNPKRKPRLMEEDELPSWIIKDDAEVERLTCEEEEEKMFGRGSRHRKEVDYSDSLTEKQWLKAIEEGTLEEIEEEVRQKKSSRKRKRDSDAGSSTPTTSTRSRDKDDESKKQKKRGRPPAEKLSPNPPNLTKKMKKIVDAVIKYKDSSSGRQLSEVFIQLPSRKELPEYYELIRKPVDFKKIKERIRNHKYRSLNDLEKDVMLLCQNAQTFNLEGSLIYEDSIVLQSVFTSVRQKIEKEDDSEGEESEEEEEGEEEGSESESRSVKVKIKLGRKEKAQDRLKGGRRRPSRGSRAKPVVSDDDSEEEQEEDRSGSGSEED
Sequence (P40337 whole entry): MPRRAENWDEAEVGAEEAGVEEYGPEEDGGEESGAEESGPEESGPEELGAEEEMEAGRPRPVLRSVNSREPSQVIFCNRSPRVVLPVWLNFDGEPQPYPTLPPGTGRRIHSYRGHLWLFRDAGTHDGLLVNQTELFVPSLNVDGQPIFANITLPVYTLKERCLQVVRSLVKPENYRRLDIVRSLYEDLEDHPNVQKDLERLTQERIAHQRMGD
propertyLabel: DC50

Answered cases to consult:
# molecule, DC50
rows = [
    ("Cc1ncsc1-c1ccc([C@H](C)NC(=O)[C@@H]2C[C@@H](O)CN2C(=O)[C@@H](c2cc(OC3CN(CCN4CCC(O[C@H]5C[C@H](Oc6cc(N7C8CCC7CN(c7cc(-c9ccccc9O)nnc7N)C8)ccn6)C5)CC4)C3)no2)C(C)C)cc1", "2.5 to 10 nM"),
    ("Cc1ncsc1-c1ccc([C@H](C)NC(=O)[C@@H]2C[C@@H](O)CN2C(=O)[C@@H](c2cc(OCCN3CCC(OC4CN(c5cc(N6C7CCC6CN(c6cc(-c8ccccc8O)nnc6N)C7)ccn5)C4)CC3)no2)C(C)C)cc1", "2.5 to 10 nM"),
    ("Cc1ncsc1-c1ccc([C@H](C)NC(=O)[C@@H]2C[C@@H](O)CN2C(=O)[C@@H](c2cc(OCCOCCOc3cc(N4C5CCC4CN(c4cc(-c6ccccc6O)nnc4N)C5)ccn3)no2)C(C)C)cc1", "< 2.5 nM"),
    ("Cc1ncsc1-c1ccc([C@H](C)NC(=O)[C@@H]2C[C@@H](O)CN2C(=O)[C@@H](c2cc(N3CCC(O[C@H]4C[C@H](Oc5cc(N6C7CCC6CN(c6cc(-c8ccccc8O)nnc6N)C7)ccn5)C4)CC3)no2)C(C)C)cc1", "< 2.5 nM"),
    ("Cc1ncsc1-c1ccc([C@H](C)NC(=O)[C@@H]2C[C@@H](O)CN2C(=O)[C@@H](c2cc(OCCCCN3CCN(CCCCOc4cc(N5C6CCC5CN(c5cc(-c7ccccc7O)nnc5N)C6)ccn4)CC3)no2)C(C)C)cc1", "< 2.5 nM"),
]

Consider the record given below.
Request: Tell us which DC50 value is on record for Cc1ncsc1-c1ccc([C@H](C)NC(=O)[C@@H]2C[C@@H](O)CN2C(=O)[C@@H](c2cc(C#CCN3CCC(O[C@H]4C[C@H](Oc5cc(N6C7CCC6CN(c6cc(-c8ccccc8O)nnc6N)C7)ccn5)C4)CC3)no2)C(C)C)cc1
Response: 2.5 to 10 nM
